experimental-system: T1, Histidine-tagged human 4-1BB protein (h4-1BB-His) (human, UniProt Q07011 24-186)
T1 construct: not shown: histidine tag
test-method-notes: SPR (Biacore T200), antibody on Protein A chip, h4-1BB-His injected;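 also: dissociation phase followed for 300 s, Kd derived as koff divided by kon from the kinetic fit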
attribute-measured: kon (M⁻¹ s⁻¹)
Give just the numeric value; M⁻¹ s⁻¹ need not be written.

Ask: Using the record for 1C4-H3K3-IgG4 (antibody, V domains shown, humanized) VH: QVQMVQSGAEVKKPGASVKLSCKASGFTFSSSYINWLRQAPGQSLEWIGWIFAGTGGTYYNQKFTGRAQITRDTSASTAYMELSSLRSEDTAIYYCARHSPRATLFDFWGQGTTLTVSS VL: EIVLTQSPATLSLSPGERATMSCRASSSVNHMHWYQQKPGFSPRAWIYATSNLASGIPARFSGSGSGTSFTLTISSLEPEDFATYYCQQWSSNPYTFGGGTKLEIK , report its kon.
Result: 31200

Ask: So what's the measured kon for this one? 55-8F6-mHvKv-IgG2 (antibody, V domains shown) VH: QVQLQQPGAELVRPGASVKLSCKASGYIFTSYWINWVKQRPGQGLEWIGNIYPSDSYTNYNQKFKDKATLTVDKSSSTAYMQLSSPTSEDSAVYYCTRFHYGSSPFDNWGQGTTLTVSS VL: DIQMTQSTSSLSASLGDRVTISCRASQDISHYLNWYQQKPDGTVKLLIYYTSRLHSGVPSRFSGSGSGTDYSLTISNLEQEDFATYFCQQGHTLPRTFGGGTKLEIK
Result: 1.57e+06
